This section presents molecules with their documented cell shape (Z-score) values.
- Test system: human monocyte-derived macrophages (M0)
- ASSAY_REMARKS: cell shape (eccentricity) Z-score vs DMSO control; higher = more elongated, M2-like morphology
- TEST_CONTEXT: 20 µM; 24 h; macrophage state: M0 (M-CSF)
Over roughly 3,800 compounds, “cell shape (eccentricity) Z-score vs DMSO control” has its median near 1.1; the lowest 2% begin near -4.7. The list comes from a sample in which the lowest values are over-represented; it also holds close analogues and randomly drawn compounds.
Write the number on its own, no unit after it.

Consider the reported cell shape (Z-score) for these molecules:
# MOLECULE, READOUT_LABEL, TEST_VALUE
rows = [
    ("COc1cc2c(c(O)c1OC)C(=O)CC(c1ccc(O)cc1)O2 (stereo not given)", "cell shape (Z-score)", 0.892),
    ("COc1cc(OC2OC(COC3OCC(O)(CO)C3O)C(O)C(O)C2O)c2c(-c3ccc(O)c(O)c3)cc(=O)oc2c1 (stereo not given)", "cell shape (Z-score)", -0.273),
    ("Cc1cc(N2CCCCC2)nc2ccccc12", "cell shape (Z-score)", 0.281),
    ("CC(C)[C@@H]1CC[C@@]2(C)CCC[C@@](C)(O)[C@@H]2[C@H]1OC(=O)/C=C/c1ccccc1", "cell shape (Z-score)", 2.15),
]

Then this molecule:
Prompt: Returns the measured cell shape (Z-score) for the input molecule. Input: NCCCCCc1cnc[nH]1
Completion: -0.662

* * *

- Test system: human monocyte-derived macrophages (M0)
- ASSAY_REMARKS: cell shape (eccentricity) Z-score vs DMSO control; higher = more elongated, M2-like morphology
- TEST_CONTEXT: 20 µM; 24 h; macrophage state: M0 (M-CSF)
In all, about 3,800 compounds were measured (“cell shape (eccentricity) Z-score vs DMSO control”: median about 1.1, lowest 2% from about -4.7 on). What follows is part of a selection rich in the lowest values, with near analogues and random picks from the rest.
Below, each of the compounds is paired with its reported cell shape (Z-score) value.
Give your answer as a number; write no unit.

Examples with their reported cell shape (Z-score) follow.
# COMPOUND, TESTED_SYSTEM, TEST_VALUE
records = [
    ("C[C@@H]1O[C@@H](O[C@@H]2[C@@H](O)[C@H](OC(=O)[C@]34CCC(C)(C)CC3C3=CCC5[C@@]6(C)CC[C@H](OC7OC(CO)C(OC8OCC(O)C(O)C8O)C(O)C7O)C(C)(C)C6CC[C@@]5(C)[C@]3(C)CC4O)O[C@H]2CO)[C@H](O)[C@H](O)[C@H]1O[C@H]1OC[C@](O)(CO)[C@H]1O (some centres not stated)", "human monocyte-derived macrophages (M0)", -11.6),
    ("CC1(C)CC[C@]2(C(=O)O[C@@H]3O[C@H](CO)[C@@H](O)[C@H](O)[C@H]3O)CC[C@]3(C)C(=CCC4[C@@]5(C)C[C@H](O)[C@H](O[C@@H]6O[C@H](C(=O)O)[C@@H](O)[C@H](O)[C@H]6O)[C@@](C)(CO)C5CC[C@]43C)C2C1 (some centres not stated)", "human monocyte-derived macrophages (M0)", 0.273),
]

Prompt: Test system human monocyte-derived macrophages (M0); read-out cell shape (Z-score); what value for CC1(C)CC[C@]2(C(=O)O[C@@H]3O[C@H](CO)[C@@H](O)[C@H](O)[C@H]3O)CC[C@]3(C)C(=CCC4[C@@]5(C)C[C@@H](O)[C@H](O)[C@@](C)(CO)C5[C@H](O)C[C@]43C)C2C1 (some centres not stated) ?
Completion: 4.82

Prompt: Fill in the recorded cell shape (Z-score) for this compound, with human monocyte-derived macrophages (M0) as test system: CC(=O)O[C@@H]1[C@@H](O)[C@H](C)O[C@@H](Oc2c(-c3ccc(O)cc3)oc3cc(O[C@@H]4O[C@@H](C)[C@H](O)[C@@H](O)[C@H]4O)cc(O)c3c2=O)[C@@H]1O
Completion: 1.24

Prompt: GET /values?readout=cell shape (Z-score)&system=human monocyte-derived macrophages (M0)&item= C[C@@H]1O[C@@H](O[C@@H]2[C@@H](O)[C@H](O[C@@H]3[C@@H](O)[C@@H](O)[C@H](O[C@H]4[C@H](OC(=O)[C@]56CCC(C)(C)C[C@H]5C5=CCC7[C@@]8(C)C[C@H](O)[C@H](O[C@@H]9O[C@H](C(=O)O)[C@@H](O)[C@H](O)[C@H]9O)[C@@](C)(CO)C8[C@H](O)C[C@@]7(C)[C@]5(C)C[C@H]6O)O[C@@H](CO)[C@@H]4O)O[C@H]3C)OC[C@H]2O)[C@H](O)[C@H](O)[C@H]1O (some centres not stated)
Completion: -6.05

Prompt: Hi! What's the reported cell shape (Z-score) for C[C@@H]1O[C@@H](O[C@@H]2[C@@H](O)[C@H](O[C@@H]3[C@@H](O)[C@@H](O)[C@H](O[C@H]4[C@H](OC(=O)[C@]56CCC(C)(C)C[C@H]5C5=CCC7[C@@]8(C)C[C@H](O)[C@H](O[C@@H]9O[C@H](C(=O)O)[C@@H](O)[C@H](O)[C@H]9O)[C@@](C)(CO)C8[C@H](O)C[C@@]7(C)[C@]5(C)C[C@H]6O)OC[C@H](O)[C@@H]4O)O[C@H]3C)OC[C@H]2O)[C@H](O)[C@H](O)[C@H]1O (some centres not stated) on human monocyte-derived macrophages (M0)?
Completion: 0.295

Prompt: Value wanted: cell shape (Z-score) (human monocyte-derived macrophages (M0)) of entry CC1(C)CC[C@@]2(C(=O)O[C@@H]3O[C@H](CO)[C@@H](O)[C@H](O)[C@H]3O)C(C1)C1=CCC3[C@@]4(C)CC[C@@H](O[C@@H]5O[C@H](CO)[C@@H](O)[C@H](O)[C@H]5O[C@@H]5O[C@H](CO)[C@@H](O)[C@H](O)[C@H]5O)C(C)(C)C4CC[C@@]3(C)[C@]1(C)C[C@H]2O (some centres not stated)
Completion: 0.124

* * *

- Test system: human monocyte-derived macrophages (M0)
- ASSAY_REMARKS: cell shape (eccentricity) Z-score vs DMSO control; higher = more elongated, M2-like morphology
- TEST_CONTEXT: 20 µM; 24 h; macrophage state: M0 (M-CSF)
Whole data set: some 3,800 compounds, median “cell shape (eccentricity) Z-score vs DMSO control” near 1.1, cut for the lowest 2% near -4.7. What follows is part of a selection rich in the lowest values, with near analogues and random picks from the rest.
READOUT_LABEL: cell shape (Z-score)
Lab note: jot the number down without any unit.

# COMPOUND, READOUT_LABEL, TEST_VALUE
rows = [
    ("O=C(CCCN1CCC(O)(c2ccc(Cl)cc2)CC1)c1ccc(F)cc1", "cell shape (Z-score)", -2.24),
    ("O=C(CCCN1CCC(O)(c2cccc(C(F)(F)F)c2)CC1)c1ccc(F)cc1", "cell shape (Z-score)", -0.261),
    ("OC1(c2ccc(Cl)c(C(F)(F)F)c2)CCN(CCCC(c2ccc(F)cc2)c2ccc(F)cc2)CC1", "cell shape (Z-score)", -6.96),
]

Then there is this compound:
Prompt: Quick one: cell shape (Z-score) for CC(=O)N[C@H]1[C@H](O[C@H]2CC[C@@]3(C)C(CC[C@]4(C)C3CC=C3[C@@H]5CC(C)(C)CC[C@]5(C(=O)OC5OCC(O)C(O)C5O)C(O)C[C@]34C)C2(C)C)O[C@H](COC2OCC(O)C(OC3OCC(O)C(O)C3O)C2O)[C@@H](O[C@@H]2O[C@@H](C)[C@H](O)[C@@H](O)[C@H]2O[C@@H]2O[C@@H](C)[C@H](O)[C@@H](O)[C@H]2O)[C@@H]1O (some centres undefined) ?
Completion: -2.27

* * *

- Test system: human monocyte-derived macrophages (M0)
- ASSAY_REMARKS: cell shape (eccentricity) Z-score vs DMSO control; higher = more elongated, M2-like morphology
- TEST_CONTEXT: 20 µM; 24 h; macrophage state: M0 (M-CSF)
Over roughly 3,800 compounds, “cell shape (eccentricity) Z-score vs DMSO control” has its median near 1.1; the lowest 2% begin near -4.7. The entries come from a sample that favours the lowest values as a whole.
Label 1 for high-side cell shape (Z-score) (at or above 2) and -1 for low-side cell shape (Z-score) (below it).

A selection of reference data follows.
# COMPOUND, CLASS
records = [
    ("NC(=O)c1ccc(-c2nc(-c3ccc4c(c3)OCCO4)c(-c3ccccn3)[nH]2)cc1", 1),
    ("CC(/C=C/C1(O)C(C)CC(O)CC1(C)C)OC1OC(CO)C(O)C(O)C1O (stereo not given)", -1),
    ("CC1(C)C(=O)C=C[C@@]2(C)C1CC(=O)[C@]1(C)C2CC[C@@]2(C)[C@H](c3ccoc3)OC(=O)[C@H]3O[C@]321 (stereo not given in full)", -1),
    ("C/C=C/C#CC#C[C@@H](O[C@@H]1O[C@H](CO)[C@@H](O)[C@H](O)[C@H]1O)[C@H](O)/C=C/CCCO", -1),
    ("N#Cc1nc2c(nc1C#N)-c1ccc(Cl)cc1C2=O", 1),
    ("COc1cc(/C=C/C(=O)O[C@H]2CC[C@]34CC35CC[C@]3(C)[C@@H](C(C)CCC=C(C)C)CC[C@@]3(C)C5CCC4C2(C)C)ccc1O (stereo not given in full)", -1),
    ("COc1ccc2nc(NC(=O)Nc3ccccc3)sc2c1", 1),
    ("CC(=O)Nc1ccc(C(=O)Nc2ccccc2N)cc1", -1),
]

Prompt: Textbook exercise: given the entry N#CC(=C(N)Sc1ccc(N)cc1)c1ccccc1C(F)(F)F , state whether its cell shape (Z-score) is greater than or equal to 2.
Completion: 1

Prompt: Identify whether the reported cell shape (Z-score) of the following compound is 2 or greater: N=C(N)Nc1ccc(Cl)cc1
Completion: -1

Prompt: // inclusive: cell shape (Z-score) at least 2? input: O=C(Nc1nc2ccc(NC(=O)C34C[C@H]5C[C@@H](C3)C[C@@H](C4)C5)cc2s1)c1ccccc1
Completion: -1

Prompt: Decide: is the reported value of cell shape (Z-score) for Cc1ccc2ccc3ccc(C)nc3c2n1 equal to or greater than 2?
Completion: 1

Prompt: Textbook exercise: given the entry O=C(O)c1ccccc1Nc1ccccc1 , state whether its cell shape (Z-score) is greater than or equal to 2.
Completion: 1

Prompt: Is cell shape (Z-score) at least 2? Consider Cc1cc(C)c(CNC(=O)c2cc(-c3ccc(N4CCNCC4)nc3)cc3c2cnn3C(C)C)c(=O)[nH]1
Completion: 1

Origin of values: the supplement of paper PMC7858590
